Quick list: Percent Effect per entry.
- Tested on: Wolbachia pipientis
- assay overview: Anti-Wolbachia Cell-Based Screen
- Assay type: functional
- Set-up: scale not given: in the data most compounds retested in dose-response had high values
- measurement context: 5 µM
Screen size: about 48,000 compounds; about 13,000 (27%) showed an effect of 50% or more. This is one part of the list.

molecule | Percent Effect / %
OC1(Cn2ccc3ccncc32)CCN(Cc2ccccn2)CC1 | -11.69
Cc1nccn1-c1cc(CNC(=O)C2CCC(=O)N2)ccn1 (stereo unspecified) | -0.872
CN1CCCN(C(=O)c2cc(CN(C)CCc3ccccc3)on2)CC1 | -31.64
OC1(Cn2ccc3ncccc32)CCN(Cc2cccs2)CC1 | 107.1
O=C(c1cccnc1)N1CCC2(CNS(=O)(=O)c3cnccc3O2)C1 (stereo unspecified) | 123.8
CC(C(=O)NC1CC1)S(=O)(=O)Cc1noc(C(C)(C)C)n1 (stereo unspecified) | 12.74
Cc1csc(CN2CC[C@H]3O[C@H](C(=O)Nc4cccnc4)CC[C@H]32)n1.O=C(O)C(F)(F)F.O=C(O)C(F)(F)F | 273.2
Cc1noc(-c2ccc(N(C)Cc3ccncn3)nc2)n1 | -29.65
CN(CCc1ccccc1)Cc1cc(C(=O)N2CCSCC2)no1 | -17.09
CCC(CNC(=O)C1CC1)(OC)c1ccccc1 (stereo unspecified) | -6.712
CC(C)(C)C(=O)N1CCC2(CC1)CC(Oc1ccccc1)CO2 (stereo unspecified) | -1.342
CC(C)C(=O)NC1COC2(CCN(C(=O)c3cccnc3)CC2)C1 (stereo unspecified) | 16.59
CNc1cc(C(=O)N2CCCCC2CCn2ccnc2C)ccn1 (stereo unspecified) | 14.21
O=C(Nc1cnccn1)[C@H]1CC[C@@H]2[C@@H](CCN2Cc2ccccn2)O1.O=C(O)C(F)(F)F | 79.42
Cn1cc(CN2CC[C@H]3O[C@H](C(=O)NC4CC4)CC[C@H]32)c2ccccc21.O=C(O)C(F)(F)F | -3.833
O=C(NCc1ccco1)[C@H]1CC[C@@H]2[C@@H](CCN2Cc2nccs2)O1.O=C(O)C(F)(F)F | 5.491
O=C(CCn1ccc2ccccc21)N1CCN(Cc2cccnc2)CC1 | -2.767
CC(C)(C)C(=O)N1CCC2(CNS(=O)(=O)c3cnccc3O2)C1 (stereo unspecified) | 153.5
O=C(NCc1ccccn1)[C@@H]1CC[C@@H]2[C@@H](CCN2c2ncc(F)cn2)O1.O=C(O)C(F)(F)F.O=C(O)C(F)(F)F | 7.451
O=C(c1cnc(-c2ccccc2)s1)N1CCOC2(CCCC2)C1 | -9.958
CCn1ccnc1-c1nccn1-c1ccccc1CN1CCOCC1 | -5.226

----------
- System: Wolbachia pipientis
- assay overview: Anti-Wolbachia Cell-Based Screen
- Type: functional
- Parameters: scale not given: in the data most compounds retested in dose-response had high values
- measurement context: 5 µM
Hit rate of the full screen: of about 48,000 compounds, about 13,000 (27%) showed an effect of 50% or more. This is one part of the list.
measurement label: Percent Effect (%)

molecule | readout value
COCC(=O)N1CCCC(C(=O)NCc2cc(CC(C)C)on2)C1 (configuration not stated) | 3.91
O=C(NC1CCCC1)NC1CCc2[nH]c(=O)ccc2C1 (configuration not stated) | 2.289
O=C(CCn1cncn1)NCC1CCS(=O)(=O)C1 (configuration not stated) | 0.07359
CN(Cc1ccccc1CN1CCCC1)C(=O)c1c[nH]c(=O)[nH]1 | 14.99
O=C(O)C(F)(F)F.O=c1ccc2c([nH]1)CCC(NCc1ccc(F)cc1)C2 (configuration not stated) | 112.4
CN(CC1Cc2ccccc2CN1C)c1nc(N)nc2c1CCNCC2 (configuration not stated) | -3.797
CN(C)C(=O)Cc1ccc(NC(=O)NC2CC2)cc1 | -3.674
COc1cc(C)nc(N2CCN(C(=O)c3ccc[nH]3)CC2)n1 | 4.964
O=C(O)C(F)(F)F.O=c1ccc2c([nH]1)CCC(NCc1ccc3c(c1)OCO3)C2 (configuration not stated) | 106.8
O=C(O)C(F)(F)F.O=C([C@@H]1COC[C@H]2CN(CC3CC3)C[C@H]21)N1CCC(F)CC1 | -0.2992
Cc1noc([C@H]2C[C@H]3OCC[C@H]3N(Cc3cccs3)C2)n1.O=C(O)C(F)(F)F | -3.779
Cc1ccc(OCCC(=O)N2CCCC(n3nc(C)nc3C)C2)cc1 (configuration not stated) | 93.22
Clc1ccc2nc(N3CCC(NCCCC4CCOC4)CC3)sc2c1 (configuration not stated) | 5.411
O=C(c1ccsc1)N1CCc2nnc(COc3cncnc3)n2CC1 | -11
CCn1nnc(NCc2cc(Br)cc(Br)c2OC)n1 | 107.9
CN(CCc1ccncc1)c1cnn(C)c(=O)c1Br | 103
Cc1ncsc1CNc1ccn(Cc2ccccc2)n1 | -3.966
Cc1nc(N(C)C)nc(N(C)CCc2ccncc2)c1C | 13.66
O=c1ccc2c([nH]1)CCC(NCc1ccncc1)C2 (configuration not stated) | 106.2
CC(C)N(C)C(=O)Cn1ncc(N(C)CCc2ccccc2)cc1=O | -17.71
Cc1ccc(C)c(OC(C)C(=O)NCCNc2cccnc2)c1 (configuration not stated) | 16.95
CCc1cc(NC(=O)C2CCCN(C(=O)NCC(C)C)C2)[nH]n1 (configuration not stated) | 96.52
COCCN(C)c1cnn(C)c(=O)c1Br | 101.6
Cc1nc(-c2ccncc2)nc(N(C)CCc2ccncc2)c1C | 0.9394
Cc1nc(C)n(C2CCCN(C(=O)Cc3cccnc3)C2)n1 (configuration not stated) | -7.777
CCN1CCN2CCCN(S(=O)(=O)c3ccc(C)cc3C)C2C1=O (configuration not stated) | 0.9872
CN(C)C(=O)N1CCc2ccc(=O)[nH]c2CC1 | -8.1
CCn1nnc(NCc2cc(Cl)cc(Cl)c2OC)n1 | 112
CCc1nc(C(=O)N2CCN(CCc3ccc(OC)cc3)CC2)c[nH]1 | -9.12
O=C(O)C(F)(F)F.O=C1CC[C@]2(CC[C@@H](NCc3ccc4c(c3)OCO4)CC2)N1 | -34.14
CCc1nc(C)c(C(C)N(C)CCc2ccncc2)s1 (configuration not stated) | 1.512
Cc1cc(CN2CCC(c3ccnn3CCO)CC2)no1 | -5.622
O=C(CNC(=O)C1CC1)NCCOc1cccc(Cl)c1Cl | 3.053
COc1ccc(CN[C@H]2CC[C@@]3(CCC(=O)N3)CC2)cc1.O=C(O)C(F)(F)F | 13.86
CSCc1nc(CNC(=O)C2CCCN(C(=O)N(C)C)C2)cs1 (configuration not stated) | 1.326
Cc1cccc(N2N=C(C(=O)NC(C)CCc3ccco3)CCC2=O)c1 (configuration not stated) | 5.008
CCC(C(=O)N(Cc1ccccn1)C1CCCCC1)n1cccn1 (configuration not stated) | 5.317
Cc1cc(CN(C)C(=O)C2CCCN(C(=O)c3ccc(Cl)cc3)C2)no1 (configuration not stated) | -5.924
CN(C)Cc1nnc(C(=O)N(C)Cc2ccc(F)cc2)o1 | -46.46
CN(C)CCN(C)c1nc(CCc2ccccc2)nc2c1cnn2C | 4.899
CCCn1nnc(NCc2cc(Br)cc(Br)c2OC)n1 | 116
CN(CCc1ccccn1)c1cnn(C)c(=O)c1Br | 101.4
CN(CCc1ccccc1)c1cnn(Cc2ccccn2)c(=O)c1 | 5.151
COc1cc(Br)c(CNc2ccn(CCC(N)=O)n2)cc1OC | -66.5
CCCC(=O)NCc1cc(Br)c(OC)c(OC)c1 | -2.36
Cc1ccc(OCC(O)CN(C)CC(=O)NC(C)C)c(C)c1 (configuration not stated) | 0.9379
O=C(O)C(F)(F)F.O=C1CC[C@]2(CC[C@@H](NCc3ccoc3)CC2)N1 | -19.54
